- measurementTarget: GST-tagged truncated human mutant G2019S LRRK2 (Homo sapiens, UniProt Q5S007, G2019S)
- assayRemarks: LRRK2 G2019S Km ATP LanthaScreen assay
- Type: biochemical
- measurementSetup: 134 μM ATP (Km ATP), LRRKtide substrate, mean IC50 values; read-out: LRRK2 pIC50 (converted)
Threshold 2 nM: IC50 strictly smaller gives criterion met, otherwise criterion not met.

>>> categorylabel("CC(C)(O)Cn1ncc(Nc2ncc3cc(Cl)c(N4CCC(C)(O)CC4)cc3n2)c1Cl")
"criterion met"
>>> categorylabel("C[C@]1(O)COCC12CCN(c1cc3nc(Nc4cnn(C5CC5)c4Cl)ncc3cc1Cl)CC2")
"criterion not met"
>>> categorylabel("CC1CN(C2COCC2O)CCN1c1cc2nc(Nc3cnn(C4CC4)c3Cl)ncc2cc1Cl (single isomer, unassigned) [Ex-12.8]")
"criterion met"
>>> categorylabel("CC(C)(O)Cn1cc(Nc2ncc3cc(Cl)c(N4C[C@H]5CC[C@@H](C4)[C@@]5(C)O)cc3n2)cn1")
"criterion met"
>>> categorylabel("Clc1cc2cnc(Nc3cnn(C4CC4)c3Cl)nc2cc1N1C[C@@H]2C[C@H]1CN2C1COC1")
"criterion not met"
>>> categorylabel("CC1CN(C2CCN(c3cc4nc(Nc5cnn(C6CC6)c5Cl)ncc4cc3Cl)CC2)C1")
"criterion not met"
>>> categorylabel("CC1(O)CCN(c2cc3nc(Nc4cnn(C5CC5)c4Cl)ncc3cc2C#N)CC1")
"criterion not met"
>>> categorylabel("OC1COCC1N1CCN(c2cc3nc(Nc4cnn(C(F)F)c4)ncc3cc2Cl)CC1 (single isomer, unassigned) [Ex-6.47]")
"criterion met"

###

- measurementTarget: GST-tagged truncated human mutant G2019S LRRK2 (Homo sapiens, UniProt Q5S007, G2019S)
- assayRemarks: LRRK2 G2019S Km ATP LanthaScreen assay
- Format: biochemical
- measurementSetup: 134 μM ATP (Km ATP), LRRKtide substrate, mean IC50 values; read-out: LRRK2 pIC50 (converted)
For each record, check the reported IC50: if it is below 1 nM write yes (1), else write no (0).

>>> categorylabel("CC1CN(C2COCC2O)CCN1c1cc2nc(Nc3cnn(C4CC4)c3Cl)ncc2cc1Cl (single isomer, unassigned) [Ex-12.9]")
"no (0)"
>>> categorylabel("Cc1cc2cnc(Nc3cnn(C4CC4)c3Cl)nc2cc1N1CCN(C2(C)COCC2O)CC1 (single isomer, unassigned) [Ex-5.6]")
"yes (1)"
>>> categorylabel("O[C@@H]1COC[C@@H]1N1CCN(c2cc3nc(Nc4cnn(C56CC(C5)C6)c4Cl)ncc3cc2Cl)CC1 (single isomer, unassigned) [Ex-13.2]")
"no (0)"
>>> categorylabel("C[C@]1(O)[C@@H]2CC[C@H]1CN(c1cc3nc(Nc4cnn(C5CC5)c4)ncc3cc1Cl)C2 [Ex-1.36]")
"no (0)"
>>> categorylabel("CC1(O)CCN(c2cc3nc(Nc4cnn(C5CC5)c4Cl)ncc3cc2Cl)CC1 [Ex-1.34]")
"no (0)"
>>> categorylabel("CO[C@H]1C[C@@H](n2ncc(Nc3ncc4cc(Cl)c(N5CCC(C)(O)CC5)cc4n3)c2C)C1 [Ex-6.14]")
"no (0)"
>>> categorylabel("COCC12CC(n3ncc(Nc4ncc5cc(Cl)c(N6C[C@H]7CC[C@@H](C6)[C@@]7(C)O)cc5n4)c3Cl)(C1)C2 [Ex-3.1]")
"yes (1)"

###

- measurementTarget: GST-tagged truncated human mutant G2019S LRRK2 (Homo sapiens, UniProt Q5S007, G2019S)
- assayRemarks: LRRK2 G2019S Km ATP LanthaScreen assay
- Assay type: biochemical
- measurementSetup: 134 μM ATP (Km ATP), LRRKtide substrate, mean IC50 values; read-out: LRRK2 pIC50 (converted)
endpointLabel: IC50 (nM)

>>> recordednumber("O[C@@H]1COC[C@@H]1N1CCN(c2nc3nc(Nc4cnn(C5CC5)c4Cl)ncc3cc2Cl)CC1 (single isomer, unassigned) [Ex-16.1]")
15.6
>>> recordednumber("CC1CN(c2cc3nc(Nc4cnn(C5CC5)c4Cl)ncc3cc2Cl)CCN1C1COCC1O (single isomer, unassigned) [Ex-12.7]")
4.36
>>> recordednumber("Cn1ncc(Nc2ncc3cc(Cl)c(N4CCN(C5COCC5O)CC4)cc3n2)c1Cl (single isomer, unassigned) [Ex-6.7]")
1.59
>>> recordednumber("Cc1cc2cnc(Nc3cnn(C4(C)CC4)c3Cl)nc2cc1N1CCN(C2(C)COC2)CC1 [Ex-5.9]")
0.64
>>> recordednumber("CC(C)n1ncc(Nc2ncc3cc(Cl)c(N4CCN(C5(C)COCC5O)CC4)cc3n2)c1C(F)F (single isomer, unassigned) [Ex-6.50]")
0.08
>>> recordednumber("Cc1c(Nc2ncc3ccc(N4C(=O)OCC4C4CC4)cc3n2)cnn1C1CCOCC1 (single isomer, unassigned) [Ex-7.14]")
0.749
>>> recordednumber("COCC12CC(n3cc(Nc4ncc5cc(Cl)c(N6CCC7(CC6)COC(CO)C7)cc5n4)cn3)(C1)C2 (centres unmarked) [Ex-3.15]")
0.227
>>> recordednumber("C[C@H]1COC(=O)N1c1ccc2cnc(Nc3cnn(CC(F)(F)F)c3)nc2c1 [Ex-7.21]")
0.625
>>> recordednumber("CC1(N2CCN(c3cc4nc(Nc5cnn(C6CC6)c5)ncc4cc3Cl)CC2)COC1 [Ex-4.18]")
2.39
>>> recordednumber("CC1(N2CCN(c3cc4nc(Nc5cnn(C6CC6(F)F)c5Cl)ncc4cc3Cl)CC2)COC1 (single isomer, unassigned) [Ex-4.60]")
3.24
>>> recordednumber("CC1(O)CC2(CN(c3cc4nc(Nc5cnn(C6(C)CC6)c5Cl)ncc4cc3Cl)C2)C1 [Ex-4.27]")
1.6
>>> recordednumber("Cc1c(Nc2ncc3cc(Cl)c(N4CCN(C5(C)COCC5O)CC4)cc3n2)cnn1C1CC1(F)F (single isomer, unassigned) [Ex-6.41]")
32.9
>>> recordednumber("CC1(N2CCN(c3cc4nc(Nc5cnn(C(C)(C)C)c5Cl)ncc4cc3Cl)CC2)COC1 [Ex-4.31]")
1.01
>>> recordednumber("[2H]C([2H])([2H])n1nc(C(C)(C)n2nccn2)cc1Nc1ncc2cc(Cl)c(N3CCC(C)(O)CC3)cc2n1 [Ex-14.1]")
4.11
>>> recordednumber("C[C@]1(O)[C@@H]2CC[C@H]1CN(c1cc3nc(Nc4cnn(C56CC(C5)C6)c4Cl)ncc3cc1Cl)C2 [Ex-3.38]")
6.62
>>> recordednumber("CC1(N2CCN(c3cc4nc(Nc5cnn(C6CC6(F)F)c5Cl)ncc4cc3Cl)CC2)COCC1O (single isomer, unassigned) [Ex-6.34]")
10.6
>>> recordednumber("CC(C)(C)n1ncc(Nc2ncc3cc(Cl)c(N4CCC(N5CC(F)(F)C5)CC4)cc3n2)c1Cl [Ex-4.33]")
4.75
>>> recordednumber("FC1(F)CN(C2CCN(c3cc4nc(Nc5cnn(C6CC6)c5Cl)ncc4cc3Cl)CC2)C1 [Ex-1.25]")
4.33
>>> recordednumber("CC1CCC12CN(c1cc3nc(Nc4cnn(C5(C)CC5)c4Cl)ncc3cc1Cl)C2 (single isomer, unassigned) [Ex-4.26]")
9.09
>>> recordednumber("CCn1ncc(Nc2ncc3ccc(N4C(=O)CCC4C)cc3n2)c1C (single isomer, unassigned) [Ex-7.18]")
8.73
>>> recordednumber("Cc1c(Nc2ncc3ccc(N(C)C4COC4)cc3n2)cnn1C1CCOCC1 [Ex-1.47]")
38.8
>>> recordednumber("Cc1c(Nc2ncc3ccc(N4C(=O)OC[C@@H]4C)cc3n2)cnn1C1CCOCC1 [Ex-1.48]")
0.625
>>> recordednumber("C[C@H]1COC(=O)N1c1ccc2cnc(Nc3cn(C)nc3C(F)(F)F)nc2c1 [Ex-7.7]")
1.92
>>> recordednumber("CN1CCN(c2cc3nc(Nc4cnn(C5(C)CC5)c4Cl)ncc3cc2Cl)CC1=O [Ex-4.44]")
20
>>> recordednumber("CC1(N2CCN(c3cc4nc(Nc5cnn(C6CC6(F)F)c5Cl)ncc4cc3Cl)CC2)COCC1O (single isomer, unassigned) [Ex-6.35]")
20.8
>>> recordednumber("Cc1c(Nc2ncc3cc(Cl)c(N4CCC(C)(O)CC4)cc3n2)cnn1C1CC1 [Ex-6.4]")
1.92
>>> recordednumber("OC1CCN(c2cc3nc(Nc4cnn(C5CC5)c4Cl)ncc3cc2Cl)CC1 [Ex-3.8]")
2.53
>>> recordednumber("COCC12CC(n3cc(Nc4ncc5cc(Cl)c(N6CCC7(CC6)COC(CO)C7)cc5n4)cn3)(C1)C2 (single isomer, unassigned) [Ex-3.16]")
0.218
>>> recordednumber("COC1CCC1n1ncc(Nc2ncc3cc(Cl)c(N4CCC(C)(O)CC4)cc3n2)c1C (single isomer, unassigned) [Ex-6.16]")
1.57

###

- measurementTarget: GST-tagged truncated human mutant G2019S LRRK2 (Homo sapiens, UniProt Q5S007, G2019S)
- assayRemarks: LRRK2 G2019S Km ATP LanthaScreen assay
- Type: biochemical
- measurementSetup: 134 μM ATP (Km ATP), LRRKtide substrate, mean IC50 values; read-out: LRRK2 pIC50 (converted)
IC50 for assorted molecules
endpointLabel: IC50 (nM)

>>> recordednumber("CC1(N2CCN(c3nc4nc(Nc5cnn(CC(F)F)c5Cl)ncc4cc3Cl)CC2)COC1")
60.8
>>> recordednumber("Cn1ncc(Nc2ncc3ccc(N4C(=O)C5CCC4C5)cc3n2)c1C(F)F (single isomer, unassigned) [Ex-4.7]")
3.19
>>> recordednumber("Cc1c(Nc2ncc3cc(Cl)c(N4CCN(C5(C)COCC5O)CC4)cc3n2)cnn1C1CC1 (single isomer, unassigned) [Ex-6.22]")
33.5
>>> recordednumber("Cc1nsc(Nc2ncc3ccc(N4C(=O)C5CCC4C5)cc3n2)c1C (stereo not shown) [Ex-8.15]")
2.59
>>> recordednumber("FC(F)Cn1ncc(Nc2ncc3cc(Cl)c(N4CCC(N5CCCC5)CC4)cc3n2)c1Cl")
16
>>> recordednumber("C[C@H]1COC(=O)N1c1ccc2cnc(Nc3cnn([C@@H]4CCN(C5COC5)C[C@H]4F)c3Cl)nc2c1")
0.625
>>> recordednumber("OC1CCN(c2cc3nc(Nc4cnn(CC(F)F)c4Cl)ncc3cc2Cl)CC1")
6.09
>>> recordednumber("CC(C)(O)Cn1ncc(Nc2ncc3cc(Br)c(NCC4CC4)nc3n2)c1Cl")
36.7
>>> recordednumber("OC1COCC1N1CCN(c2cc3nc(Nc4cnn(C(F)F)c4)ncc3cc2Cl)CC1 (single isomer, unassigned) [Ex-6.46]")
18.4
>>> recordednumber("CC1(N2CCN(c3cc4nc(Nc5cnn(CC6C[C@@H](F)[C@H](F)C6)c5)ncc4cc3Cl)CC2)COC1")
23.9
>>> recordednumber("COC1CC(Cn2ncc(Nc3ncc4cc(Cl)c(N5CCN(C6(C)COC6)CC5)cc4n3)c2Cl)C1 (stereo not shown)")
3.23
>>> recordednumber("COCC12CC(n3cc(Nc4ncc5cc(Cl)c(N6CCC7(CCOC7)CC6)cc5n4)cn3)(C1)C2")
1.15
>>> recordednumber("CCn1ncc(Nc2ncc3ccc(N4CCCC4C)cc3n2)c1C (single isomer, unassigned) [Ex-1.9]")
36.1
>>> recordednumber("CC(C)(O)CC(O)Cn1ncc(Nc2ncc3cc(Cl)c(N4CCC(C)(O)CC4)cc3n2)c1Cl (stereo not shown)")
27.3
>>> recordednumber("CC(C)(O)Cn1cc(Nc2ncc3cc(Cl)c(N4CCN(C5(C)COC5)CC4)cc3n2)cn1")
5.26
>>> recordednumber("Cc1c(Nc2ncc3ccc(N4[C@H](C)CC[C@H]4C)cc3n2)cnn1CCF")
20.2

// data source = patent US20230303540A1
